test: DRUGMATRIX: Serotonin (5-Hydroxytryptamine) 5-HT3 radioligand binding (ligand: [3H] GR-65630); type: cell membranes, Membrane; details: hek293; Not Active = under 50% inhibition at 10 µM

Smiles String	IC50
CCOC(=O)[C@H](CCc1ccccc1)N[C@@H](C)C(=O)N1CCC[C@H]1C(=O)O	Not Active
COc1cc(N)nc2[nH]c(-c3ccc(F)cc3)c(-c3ccncc3)c12	Not Active
CCc1oc2ccccc2c1C(=O)c1cc(Br)c(O)c(Br)c1	Not Active
C#C[C@]1(O)CC[C@H]2[C@@H]3CCc4cc(O)ccc4[C@H]3CC[C@@]21C	Not Active
CC(C)(Sc1cc(C(C)(C)C)c(O)c(C(C)(C)C)c1)Sc1cc(C(C)(C)C)c(O)c(C(C)(C)C)c1	Not Active
